Test system: 786-0 renal
MEASUREMENT DESCRIPTION: NCI tumour cell line growth inhibition, 48 h
TGI: recorded values
ENDPOINT NAME: TGI

{"columns": ["COMPOUND", "ENDPOINT NAME", "ASSAY VALUE"],
 "data": [
  ["Nc1ccc2[nH]c(-c3cccc(Cl)c3)cc(=O)c2c1", "TGI", "> 100 µM"],
  ["CC1(C)OCC2OC3([C@H]4OC(C)(C)O[C@@H]4CO)OC(C)(C)OC3C2O1 (stereo partly drawn)", "TGI", "> 100 µM"],
  ["N#Cc1cc([N+](=O)[O-])ccc1NC(=O)C(=O)Nc1n[nH]c(N)n1", "TGI", "> 100 µM"]
]}

Data origin, for the record: PubChem BioAssay (NCI)
